Values from paper PMC2674222

Molecular target: F159W-Leuko-PNP (Homo sapiens, UniProt P00491, F159W/W16Y/W178Y/W94Y)
Sequence (P00491 1-289 W16Y/W94Y/F159W/W178Y): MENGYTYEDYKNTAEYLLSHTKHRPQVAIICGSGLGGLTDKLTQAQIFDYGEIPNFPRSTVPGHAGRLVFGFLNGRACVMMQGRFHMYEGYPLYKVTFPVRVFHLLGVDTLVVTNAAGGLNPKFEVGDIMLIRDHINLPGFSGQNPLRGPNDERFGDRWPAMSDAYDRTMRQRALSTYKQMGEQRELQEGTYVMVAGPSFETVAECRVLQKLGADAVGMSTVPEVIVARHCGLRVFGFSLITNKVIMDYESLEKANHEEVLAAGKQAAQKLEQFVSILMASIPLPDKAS
Assay: Fluorometric titration of hypoxanthine-free enzyme with ligands
Assay type: binding
Conditions: Kd, presence of phosphate (50 mM KH2PO4), pH 7.4, 25 °C
recorded-endpoint: Kd (µM)
Please give a number only; it is taken to be in µM.

Give the reported Kd for `O=c1[nH]cnc2nc[nH]c12` (system: F159W-Leuko-PNP (Homo sapiens, UniProt P00491, F159W/W16Y/W178Y/W94Y)).
16
